B1: TPR t1 (parent)
chain: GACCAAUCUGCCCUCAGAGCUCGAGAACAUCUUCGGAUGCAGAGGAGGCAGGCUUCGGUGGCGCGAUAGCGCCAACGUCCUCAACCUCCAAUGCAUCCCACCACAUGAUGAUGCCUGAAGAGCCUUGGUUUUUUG

# Variants of: B1
# assay.overview: polymerase ribozyme fitness, log enrichment relative to wild type (log ratio); higher = more active; in vitro selection for triplet polymerase activity
# cutoff -4 applies to polymerase ribozyme fitness (log ratio); >= gives true, < gives false

Solved entries (count: 3):
Q) Check if polymerase ribozyme fitness (log ratio) >= -4 (inclusive). Item: C88U G117A
A) true

Q) Check if polymerase ribozyme fitness (log ratio) >= -4 (inclusive). Item: C34U C62A
A) false

Q) Check if polymerase ribozyme fitness (log ratio) >= -4 (inclusive). Item: G63A C79A G93U
A) false

Here's the next entry for you.
Q) Check if polymerase ribozyme fitness (log ratio) >= -4 (inclusive). Item: A26C G47U C56U U112C
A) false

Where do these numbers come from? They come from the RNAGym collection of RNA variant scans (doi:10.1073/pnas.2313332121).
